Parameter pIC50: see the listing below.
test_system: Elastase from human neutrophils (Homo sapiens)
Sequence (P08246 30-267): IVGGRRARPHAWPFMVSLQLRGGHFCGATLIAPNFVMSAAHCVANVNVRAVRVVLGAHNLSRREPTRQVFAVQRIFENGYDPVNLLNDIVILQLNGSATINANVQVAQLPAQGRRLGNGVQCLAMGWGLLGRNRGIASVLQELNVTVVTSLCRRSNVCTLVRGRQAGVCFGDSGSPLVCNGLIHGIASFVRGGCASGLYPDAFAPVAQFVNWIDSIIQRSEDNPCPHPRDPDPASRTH
assay: Enzymatic assay, elastase
run_conditions: read-out: Elastase IC50
pIC50: −log10 of the molar value. Where a SMILES comes first, the peptide text is derived from it.
recorded_endpoint: pIC50

[[record]]
compound = "CCCC[C@@H]1NC(=O)[C@@H]2CCCN2C(=O)[C@H]2CCCN2C(=O)[C@H](CCC(N)=O)NC(=O)[C@@H]2CSSC[C@H](NC1=O)C(=O)N[C@@H]([C@@H](C)O)C(=O)N[C@@H](C)C(=O)N[C@@H](CO)C(=O)N[C@@H]([C@@H](C)CC)C(=O)N1CCC[C@H]1C(=O)N1CCC[C@H]1C(=O)N[C@@H](CCC(N)=O)C(=O)N2 [Ex. 131] (HELM PEPTIDE1{[Nle].C.T.A.S.I.P.P.Q.C.Q.[dP].P}$PEPTIDE1,PEPTIDE1,2:R3-10:R3|PEPTIDE1,PEPTIDE1,1:R1-13:R2$$$V2.0)"
test_system = "Elastase from human neutrophils (Homo sapiens)"
recorded_endpoint = "pIC50"
value_prefix = "="
obs_value = 7.55

[[record]]
compound = "CCCC[C@@H]1NC(=O)[C@@H]2CCCN2C(=O)[C@@H]2CCCN2C(=O)[C@H](CC(=O)O)NC(=O)[C@H](CO)NC(=O)[C@H](CCCCN)NC(=O)[C@H]([C@@H](C)O)NC(=O)[C@@H]2CSSC[C@H](NC1=O)C(=O)N[C@@H](CO)C(=O)N1CCC[C@@H]1C(=O)N1CCC[C@H]1C(=O)N[C@@H](Cc1ccccc1)C(=O)N2 [Ex. 53] (HELM PEPTIDE1{F.C.T.K.S.D.P.P.[Nle].C.S.[dP].P}$PEPTIDE1,PEPTIDE1,2:R3-10:R3|PEPTIDE1,PEPTIDE1,1:R1-13:R2$$$V2.0)"
test_system = "Elastase from human neutrophils (Homo sapiens)"
recorded_endpoint = "pIC50"
value_prefix = "<"
obs_value = 4.00


* * *

Test system: HELA cells (Acc57)
assay: Cytotoxicity assay (MTT reduction), HELA cells
Assay type: cell-based
run_conditions: Hela cells
Where a SMILES comes first, the peptide text is derived from it.
recorded_endpoint: Cytotoxicity LC50/GI50 Hela cells

[[record]]
compound = "CCCC[C@@H]1NC(=O)[C@H](CC(=O)O)NC(=O)[C@H]2CCCN2C(=O)[C@H](Cc2ccc(O)cc2)NC(=O)[C@@H]2CSSC[C@H](NC1=O)C(=O)N[C@@H]([C@@H](C)O)C(=O)N[C@@H](C)C(=O)N[C@@H](CO)C(=O)N[C@@H]([C@@H](C)CC)C(=O)N1CCC[C@H]1C(=O)N1CCC[C@H]1C(=O)N[C@@H](CCC(N)=O)C(=O)N2 [Ex. 121] (HELM PEPTIDE1{[Nle].C.T.A.S.I.P.P.Q.C.Y.[dP].D}$PEPTIDE1,PEPTIDE1,2:R3-10:R3|PEPTIDE1,PEPTIDE1,1:R1-13:R2$$$V2.0)"
obs_value = "49 µM"


* * *

Parameter pIC50: see the listing below.
test_system: CathepsinG, from human neutrophils (Homo sapiens, UniProt P08311)
Sequence (P08311 21-244): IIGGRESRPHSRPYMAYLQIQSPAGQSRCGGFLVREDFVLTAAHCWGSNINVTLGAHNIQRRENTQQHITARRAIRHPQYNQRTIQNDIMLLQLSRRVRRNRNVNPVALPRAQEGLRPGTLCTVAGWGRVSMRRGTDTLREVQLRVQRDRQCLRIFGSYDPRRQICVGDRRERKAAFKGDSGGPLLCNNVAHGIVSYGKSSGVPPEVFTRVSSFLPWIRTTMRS
assay: Enzymatic assay, cathepsin G
run_conditions: Cathepsin G IC50
pIC50: −log10 of the molar value. Where a SMILES comes first, the peptide text is derived from it.
recorded_endpoint: pIC50

[[record]]
compound = "CC[C@H](C)[C@@H]1NC(=O)[C@@H]2CCCN2C(=O)[C@@H]2CCCN2C(=O)[C@H](CC(=O)O)NC(=O)[C@H](CO)NC(=O)[C@H](CCCCN)NC(=O)[C@H]([C@@H](C)O)NC(=O)[C@@H]2CSSC[C@H](NC1=O)C(=O)N[C@@H](CCCNC(=N)N)C(=O)N1CCC[C@@H]1C(=O)N1CCC[C@H]1C(=O)N[C@@H](Cc1ccccc1Cl)C(=O)N2 [Ex. 13] (HELM PEPTIDE1{[O=C([C@H](Cc1ccccc1Cl)N[*:1])[*:2]].C.T.K.S.D.P.P.I.C.R.[dP].P}$PEPTIDE1,PEPTIDE1,2:R3-10:R3|PEPTIDE1,PEPTIDE1,1:R1-13:R2$$$V2.0)"
obs_value = 7.00

[[record]]
compound = "CC[C@H](C)[C@@H]1NC(=O)[C@@H]2CCCN2C(=O)[C@@H]2CCCN2C(=O)[C@H](CC(=O)O)NC(=O)[C@H](CO)NC(=O)[C@H](CCCCN)NC(=O)[C@H]([C@@H](C)O)NC(=O)[C@@H]2CSSC[C@H](NC1=O)C(=O)N[C@@H](CC(=O)O)C(=O)N1CCC[C@@H]1C(=O)N1CCC[C@H]1C(=O)N[C@@H](C1CCCCC1)C(=O)N2 [Ex. 39] (HELM PEPTIDE1{[O=C([C@@H](N[*:1])C1CCCCC1)[*:2]].C.T.K.S.D.P.P.I.C.D.[dP].P}$PEPTIDE1,PEPTIDE1,2:R3-10:R3|PEPTIDE1,PEPTIDE1,1:R1-13:R2$$$V2.0)"
obs_value = 7.42


* * *

Parameter Hemolysis at 100 μM %: see the listing below.
Tested on: human red blood cells (hRBC)
assay: Hemolysis
Where a SMILES comes first, the peptide text is derived from it.
recorded_endpoint: Hemolysis at 100 μM % (%)

[[record]]
molecule = "CC[C@H](C)[C@@H]1NC(=O)[C@@H]2CCCN2C(=O)[C@@H]2CCCN2C(=O)[C@H](CC(=O)O)NC(=O)[C@H](CO)NC(=O)[C@H](CCCCN)NC(=O)[C@H]([C@@H](C)O)NC(=O)[C@@H]2CSSC[C@H](NC1=O)C(=O)N[C@@H](CC(N)=O)C(=O)N1CCC[C@@H]1C(=O)N1CCC[C@H]1C(=O)N[C@@H](C1CCCCC1)C(=O)N2 [Ex. 37] (HELM PEPTIDE1{[O=C([C@@H](N[*:1])C1CCCCC1)[*:2]].C.T.K.S.D.P.P.I.C.N.[dP].P}$PEPTIDE1,PEPTIDE1,2:R3-10:R3|PEPTIDE1,PEPTIDE1,1:R1-13:R2$$$V2.0)"
recorded_endpoint = "Hemolysis at 100 μM %"
unit_spec = "%"
obs_value = 0.1

[[record]]
molecule = "CCCC[C@@H]1NC(=O)[C@@H]2CCCN2C(=O)[C@H]2CCCN2C(=O)[C@H]([C@@H](C)O)NC(=O)[C@@H]2CSSC[C@H](NC1=O)C(=O)N[C@@H]([C@@H](C)O)C(=O)N[C@@H](CCCCN)C(=O)N[C@@H](CO)C(=O)N[C@@H](CC(=O)O)C(=O)N1CCC[C@H]1C(=O)N1CCC[C@H]1C(=O)N[C@@H]([C@@H](C)CC)C(=O)N2 [Ex. 42] (HELM PEPTIDE1{[Nle].C.T.K.S.D.P.P.I.C.T.[dP].P}$PEPTIDE1,PEPTIDE1,2:R3-10:R3|PEPTIDE1,PEPTIDE1,1:R1-13:R2$$$V2.0)"
recorded_endpoint = "Hemolysis at 100 μM %"
unit_spec = "%"
obs_value = 0


* * *

test_system: UniProt:P07477
Where a SMILES comes first, the peptide text is derived from it.
recorded_endpoint: Trypsin at 100 μM % (%)

[[record]]
compound = "CCCC[C@@H]1NC(=O)[C@@H]2CCCN2C(=O)[C@H]2CCCN2C(=O)[C@H](Cc2ccc(O)cc2)NC(=O)[C@H]([C@@H](C)O)NC(=O)[C@H](CCC(N)=O)NC(=O)[C@@H]2CCCN2C(=O)[C@@H]2CCCN2C(=O)[C@H]([C@@H](C)CC)NC(=O)[C@H](CO)NC(=O)[C@H](C)NC(=O)[C@H]([C@@H](C)O)NC(=O)[C@H](CCC(N)=O)NC1=O [Ex. 109] (HELM PEPTIDE1{[Nle].Q.T.A.S.I.P.P.Q.T.Y.[dP].P}$PEPTIDE1,PEPTIDE1,1:R1-13:R2$$$V2.0)"
recorded_endpoint = "Trypsin at 100 μM %"
obs_value = 0

[[record]]
compound = "CCCC[C@@H]1NC(=O)[C@@H]2CCCN2C(=O)[C@H]2CCCN2C(=O)[C@H](CCC(N)=O)NC(=O)[C@@H]2CSSC[C@H](NC1=O)C(=O)N[C@@H]([C@@H](C)O)C(=O)N[C@@H](C)C(=O)N[C@@H](CO)C(=O)N[C@@H]([C@@H](C)CC)C(=O)N1CCC[C@H]1C(=O)N1CCC[C@H]1C(=O)N[C@@H](CCC(N)=O)C(=O)N2 [Ex. 131] (HELM PEPTIDE1{[Nle].C.T.A.S.I.P.P.Q.C.Q.[dP].P}$PEPTIDE1,PEPTIDE1,2:R3-10:R3|PEPTIDE1,PEPTIDE1,1:R1-13:R2$$$V2.0)"
recorded_endpoint = "Trypsin at 100 μM %"
obs_value = 0

[[record]]
compound = "CCCC[C@@H]1NC(=O)[C@H]([C@@H](C)O)NC(=O)[C@@H]2CSSC[C@H](NC(=O)[C@H]([C@@H](C)CC)NC(=O)[C@@H]3CCCN3C(=O)[C@@H]3CCCN3C(=O)[C@H](CC(=O)O)NC(=O)[C@H](CO)NC1=O)C(=O)N[C@@H](CCCNC(=N)N)C(=O)N1CCC[C@@H]1C(=O)N1CCC[C@H]1C(=O)N[C@@H]([C@@H](C)CC)C(=O)N2 [Ex. 22] (HELM PEPTIDE1{I.C.T.[Nle].S.D.P.P.I.C.R.[dP].P}$PEPTIDE1,PEPTIDE1,2:R3-10:R3|PEPTIDE1,PEPTIDE1,1:R1-13:R2$$$V2.0)"
recorded_endpoint = "Trypsin at 100 μM %"
obs_value = "84."

